system: Debaryomyces hansenii; assay: Antimicrobial activity against Debaryomyces hansenii IFO 18 after 48 hrs by agar dilution method; format: functional; conditions: IFO 18, 48 h
Recorded MIC by entry
Report as a plain number; the unit µg/mL is understood.

(Q) Quick one: MIC for CC1CC[C@@]2(OC1)O[C@H]1C[C@H]3[C@@H]4CC[C@@H]5C[C@@H](O[C@@H]6O[C@H](CO)[C@H](O)[C@H](O[C@@H]7OC[C@@H](O)[C@H](O)[C@H]7O)[C@H]6O[C@@H]6O[C@H](CO)[C@@H](O)[C@H](O)[C@H]6O)CC[C@]5(C)[C@H]4CC[C@]3(C)[C@H]1[C@@H]2C (mixture of isomers) ?
(A) 50

(Q) Queued: CC1CC[C@@]2(OC1)O[C@H]1C[C@H]3[C@@H]4CC[C@@H]5C[C@@H](O[C@@H]6O[C@H](CO)[C@@H](O)[C@H](O[C@@H]7OC[C@@H](O)[C@H](O)[C@H]7O)[C@H]6O[C@@H]6O[C@H](CO)[C@@H](O)[C@H](O)[C@H]6O)CC[C@]5(C)[C@H]4CC[C@]3(C)[C@H]1[C@@H]2C (mixture of isomers)
(A) 6.25

----------
Recorded MIC by entry
system: Wickerhamomyces anomalus; experiment: Antimicrobial activity against Hansenula anomala HUT 7083 after 48 hrs by agar dilution method; type: functional

Please review the following examples before continuing.
structure smiles	experimental endpoint	observed value
C=C1CC[C@@]2(OC1)O[C@H]1C[C@H]3[C@@H]4CC[C@@H]5C[C@@H](O[C@@H]6O[C@H](CO)[C@@H](O)[C@H](O[C@@H]7OC[C@@H](O)[C@H](O)[C@H]7O)[C@H]6O[C@@H]6O[C@H](CO)[C@@H](O)[C@H](O)[C@H]6O)CC[C@]5(C)[C@H]4CC[C@]3(C)[C@H]1[C@@H]2C	MIC	3.13 µg/mL
C[C@H]1CC[C@@]2(OC1)O[C@H]1C[C@H]3[C@@H]4CC[C@@H]5C[C@@H](O[C@@H]6O[C@H](CO)[C@H](O)[C@H](O[C@@H]7O[C@H](CO)[C@@H](O)[C@H](O)[C@H]7O)[C@H]6O[C@@H]6O[C@H](CO)[C@@H](O)[C@H](O)[C@H]6O)CC[C@]5(C)[C@H]4CC[C@]3(C)[C@H]1[C@@H]2C	MIC	3.13 µg/mL

(Q) Kindly state the measured MIC obtained for C=C1CC[C@@]2(OC1)O[C@H]1C[C@H]3[C@@H]4CC[C@@H]5C[C@@H](O[C@@H]6O[C@H](CO)[C@@H](O)[C@H](O[C@@H]7OC[C@@H](O)[C@H](O)[C@H]7O)[C@H]6O[C@@H]6O[C@H](CO)[C@@H](O)[C@H](O)[C@H]6O)CC[C@]5(C)[C@H]4CC(=O)[C@]3(C)[C@H]1[C@@H]2C with Wickerhamomyces anomalus.
(A) > 100 µg/mL

(Q) Queued: C=C1CC[C@@]2(OC1)O[C@H]1C[C@H]3[C@@H]4CC[C@@H]5C[C@@H](O[C@@H]6O[C@H](CO)[C@@H](O)[C@H](O[C@@H]7O[C@H](CO)[C@@H](O)[C@H](O)[C@H]7O)[C@H]6O[C@@H]6O[C@H](CO)[C@@H](O)[C@H](O)[C@H]6O)CC[C@]5(C)[C@H]4CC[C@]3(C)[C@H]1[C@@H]2C
(A) 6.13 µg/mL

(Q) Queued: C[C@H]1CC[C@@]2(OC1)O[C@H]1C[C@H]3[C@@H]4CC[C@@H]5C[C@@H](O[C@@H]6O[C@H](CO)[C@@H](O)[C@H](O)[C@H]6O[C@@H]6O[C@H](CO)[C@@H](O)[C@H](O)[C@H]6O)CC[C@]5(C)[C@H]4CC[C@]3(C)[C@H]1[C@@H]2C
(A) 6.25 µg/mL

(Q) Queued: C=C1CC[C@@]2(OC1)O[C@H]1C[C@H]3[C@@H]4CC[C@@H]5C[C@@H](O[C@@H]6O[C@H](CO)[C@H](O)[C@H](O)[C@H]6O[C@@H]6O[C@H](CO)[C@@H](O)[C@H](O)[C@H]6O)[C@@H](O)C[C@]5(C)[C@H]4CC[C@]3(C)[C@H]1[C@@H]2C
(A) > 100 µg/mL

----------
tested on: Wickerhamomyces anomalus; assay: Antimicrobial activity against Hansenula anomala HUT 7083 after 48 hrs by agar dilution method; type: functional
Recorded MIC by entry
Report as a plain number; the unit µg/mL is understood.

molecule	MIC (µg/mL)
C[C@H]1CC[C@@]2(OC1)O[C@H]1C[C@H]3[C@@H]4CC[C@@H]5C[C@@H](O[C@@H]6O[C@H](CO)[C@@H](O)[C@H](O[C@@H]7O[C@H](CO)[C@@H](O)[C@H](O)[C@H]7O)[C@H]6O[C@@H]6O[C@H](CO)[C@@H](O)[C@H](O)[C@H]6O)CC[C@]5(C)[C@H]4CC[C@]3(C)[C@H]1[C@@H]2C	1.56
CC1CC[C@@]2(OC1)O[C@H]1C[C@H]3[C@@H]4CC[C@@H]5C[C@@H](O[C@@H]6O[C@H](CO)[C@H](O)[C@H](O[C@@H]7OC[C@@H](O)[C@H](O)[C@H]7O)[C@H]6O[C@@H]6O[C@H](CO)[C@@H](O)[C@H](O)[C@H]6O)CC[C@]5(C)[C@H]4CC[C@]3(C)[C@H]1[C@@H]2C (mixture of isomers)	3.13
CC1CC[C@@]2(OC1)O[C@H]1C[C@H]3[C@@H]4CC[C@@H]5C[C@@H](O[C@@H]6O[C@H](CO)[C@@H](O)[C@H](O[C@@H]7OC[C@@H](O)[C@H](O)[C@H]7O)[C@H]6O[C@@H]6O[C@H](CO)[C@@H](O)[C@H](O)[C@H]6O)CC[C@]5(C)[C@H]4CC[C@]3(C)[C@H]1[C@@H]2C (mixture of isomers)	3.13

(Q) Quick one: MIC for C=C1CC[C@@]2(OC1)O[C@H]1C[C@H]3[C@@H]4CC[C@@H]5C[C@@H](O[C@@H]6O[C@H](CO)[C@H](O)[C@H](O[C@@H]7OC[C@@H](O)[C@H](O)[C@H]7O)[C@H]6O[C@@H]6O[C@H](CO)[C@@H](O)[C@H](O)[C@H]6O)CC[C@]5(C)[C@H]4CC[C@]3(C)[C@H]1[C@@H]2C ?
(A) 3.13

----------
test system: Candida albicans; test: Antimicrobial activity against Candida albicans TIMM 0134 after 48 hrs by agar dilution method; assay type: functional
experimental endpoint: MIC

Please review the following examples before continuing.
compound	MIC
C[C@H]1CC[C@@]2(OC1)O[C@H]1C[C@H]3[C@@H]4CC[C@@H]5C[C@@H](O[C@@H]6O[C@H](CO)[C@@H](O)[C@H](O[C@@H]7O[C@H](CO)[C@@H](O)[C@H](O)[C@H]7O)[C@H]6O[C@@H]6O[C@H](CO)[C@@H](O)[C@H](O)[C@H]6O)CC[C@]5(C)[C@H]4CC[C@]3(C)[C@H]1[C@@H]2C	> 100 µg/mL
C=C1CC[C@@]2(OC1)O[C@H]1C[C@H]3[C@@H]4CC[C@@H]5C[C@@H](O[C@@H]6O[C@H](CO)[C@H](O)[C@H](O[C@@H]7OC[C@@H](O)[C@H](O)[C@H]7O)[C@H]6O[C@@H]6O[C@H](CO)[C@@H](O)[C@H](O)[C@H]6O)[C@@H](O)C[C@]5(C)[C@H]4CC[C@]3(C)[C@H]1[C@@H]2C	100 µg/mL
CC1CC[C@@]2(OC1)O[C@H]1C[C@H]3[C@@H]4CC[C@@H]5C[C@@H](O[C@@H]6O[C@H](CO)[C@H](O)[C@H](O[C@@H]7OC[C@@H](O)[C@H](O)[C@H]7O)[C@H]6O[C@@H]6O[C@H](CO)[C@@H](O)[C@H](O)[C@H]6O)CC[C@]5(C)[C@H]4CC[C@]3(C)[C@H]1[C@@H]2C (mixture of isomers)	> 100 µg/mL

(Q) Quick one: MIC for C=C1CC[C@@]2(OC1)O[C@H]1C[C@H]3[C@@H]4CC[C@@H]5C[C@@H](O[C@@H]6O[C@H](CO)[C@H](O)[C@H](O[C@@H]7OC[C@@H](O)[C@H](O)[C@H]7O)[C@H]6O[C@@H]6O[C@H](CO)[C@@H](O)[C@H](O)[C@H]6O)CC[C@]5(C)[C@H]4CC[C@]3(C)[C@H]1[C@@H]2C ?
(A) 12.5 µg/mL

(Q) Queued: C=C1CC[C@@]2(OC1)O[C@H]1C[C@H]3[C@@H]4CC[C@@H]5C[C@@H](O[C@@H]6O[C@H](CO)[C@H](O)[C@H](O)[C@H]6O[C@@H]6O[C@H](CO)[C@@H](O)[C@H](O)[C@H]6O)[C@@H](O)C[C@]5(C)[C@H]4CC[C@]3(C)[C@H]1[C@@H]2C
(A) > 100 µg/mL

(Q) Queued: C=C1CC[C@@]2(OC1)O[C@H]1C[C@H]3[C@@H]4CC[C@@H]5C[C@@H](O[C@@H]6O[C@H](CO)[C@@H](O)[C@H](O[C@@H]7O[C@H](CO)[C@@H](O)[C@H](O)[C@H]7O)[C@H]6O[C@@H]6O[C@H](CO)[C@@H](O)[C@H](O)[C@H]6O)CC[C@]5(C)[C@H]4CC[C@]3(C)[C@H]1[C@@H]2C
(A) 12.5 µg/mL
